growth for assorted compounds
Tested on: M14 melanoma
protocol_text: NCI-60 one-dose screen, 48 h (100 = growth as untreated, 0 = no growth, -100 = all killed)
settings: 10 µM unless noted
The panel holds about 83,000 compounds, 20% with a hit somewhere; the sample as a whole holds those more often.
The figure you give is taken to be in %; do not add the unit.

COc1ccc(NC(=O)CSc2nc3ccc(Cl)cc3c(=O)n2-c2ccccc2C(F)(F)F)c(OC)c1OC :: 91.4
Cc1ccc2c(c1)C(C)Cc1c(N(C)C)ncnc1N2C (stereo unspecified) :: 24.7
CCN(CC)CCSc1c2ccc(Cl)cc2nc2ccc(OC)cc12 :: 79

Enquiry: # value lookup — system M14 melanoma, readout growth, item CC(Br)C(O)c1cc2c(cc1Br)OCO2 (stereo unspecified)
Return: 96

Enquiry: # value lookup — system M14 melanoma, readout growth, item O=C(NNC(=S)Nc1ccccc1)c1ccccn1
Return: 25.3

Enquiry: Observed growth on M14 melanoma for CCNCc1ccncc1 , please.
Return: 94.5

----------
Test system: HOP-62 NSCLC
protocol_text: NCI-60 one-dose screen, 48 h (100 = growth as untreated, 0 = no growth, -100 = all killed)
settings: 10 µM unless noted
Compounds without any hit were thinned out: in the full panel of roughly 83,000, 20% have a hit.
compounds and their reported growth
Supply the numeric figure in %, leaving out any unit text.

Consider the worked cases shown below.
Cc1cc(C)c(NC(=O)c2sc3nc4c(cc3c2N)CN(Cc2ccccc2)CC4)c(C)c1 :: 33.7
CC[C@H](C)[C@@H]1NC(=O)[C@H]([C@@H](C)O)NC(=O)C(Cc2ccccc2)NC(=O)[C@@H]2CCCN2C(=O)C(C(C)C)NC(=O)C(Cc2ccccc2)NC(=O)CNC(=O)[C@@H]2CCCN2C1=O (some centres undefined) :: 76
COc1ccc(/C=C/C(=O)c2ccc(NC(=O)CN3CCN(c4cc5c(cc4F)c(=O)c(C(=O)O)cn5C4CC4)CC3)cc2)cc1 :: 98.2
O=S(=O)(NCCCNc1nccc(-c2c(-c3ccc(F)c(O)c3)nc3sccn23)n1)c1ccc(Cl)cc1 :: 96.6
CCN1C(=O)N(CC)C2Nn3c(s/c(=C4\C(=O)N(C5CCCC5)c5ccccc54)c3=O)=NC21 (centres undefined) :: 50
NCCSC(c1ccccc1)(c1ccccc1)c1ccccc1 :: 40.8
COc1cc(-c2csc(NC(=O)c3cc(C(F)(F)F)cc(C(F)(F)F)c3)n2)cc(OC)c1OC :: 46.4
O=C(O)C(Cc1ccccc1)N1C(=O)/C(=C/C(Cl)=C/c2ccc([N+](=O)[O-])cc2)SC1=S (centres undefined) :: 47.7

Enquiry: For the compound shown here, O=C(Cc1c(F)cccc1Cl)Nc1ccc(S(=O)(=O)Nc2ncccn2)cc1 , give the reported growth.
Return: 96.2

----------
System: HOP-92 NSCLC
protocol_text: NCI-60 one-dose screen, 48 h (100 = growth as untreated, 0 = no growth, -100 = all killed)
settings: 10 µM unless noted
Description: Growth inhibition of the HOP-92 human Non-Small Cell Lung tumor cell line is measured as a screen for anti-cancer activity. Cells are grown in 96 well plates and exposed to the test compound for 48 hours. Compounds are tested at a single concentration, which is 10^-5 M for most compounds. The reported endpoint is percent growth (GI% or GIPRCNT), where numbers from 0 - 100% represent growth inhibition, and numbers from -100% - 0 represent cell death. […]
The panel holds about 83,000 compounds, 20% with a hit somewhere; the sample as a whole holds those more often.
Quick rule for you: growth at 50% or higher means yes, lower means no.

Enquiry: Confirm if growth reported for the compound O=S(=O)(NCCCNc1cc(-c2cn(-c3ccccc3)nc2-c2cccc(O)c2)ccn1)c1ccc(Cl)cc1 is 50% or above.
Return: no
